Collected −ΔG37 values appear next to each entry.
- System: XACAGCTGT
- MEASUREMENT PROTOCOL: Dangling-end thermal denaturation, sequence XACAGCTGT (Table 1)
- Format: physicochemical
- REPORTED CONDITIONS: average from fits to individual melting curves
Kindly answer with a numeric value in kcal, unit omitted.

Example results:
COMPOUND	READOUT	ENDPOINT UNIT	VALUE MEASURED
OC[C@H]1O[C@@H](c2cc(F)c(F)c(F)c2F)C[C@@H]1O [2,3,4,5-tetrafluorophenyl]	−ΔG37	kcal	9.8
OC[C@H]1OC(c2ccc(F)cc2)C[C@@H]1O (stereo partly drawn) [4-fluorophenyl, 1′-(4-fluorophenyl)-2′-deoxy-D-ribose]	−ΔG37	kcal	9.6
OCC1OC(c2cc(F)c(F)cc2F)CC1O (centres unmarked) [2,4,5-trifluorophenyl]	−ΔG37	kcal	9.7
OC[C@H]1O[C@@H](c2c(F)cc(F)cc2F)C[C@@H]1O [2,4,6-trifluorophenyl]	−ΔG37	kcal	9.4

# ---- query compound ----
Input: # −ΔG37 lookup, item OC[C@H]1O[C@@H](c2c(F)c(F)c(F)c(F)c2F)C[C@@H]1O [pentafluorophenyl]
Output: 9.3
